assay: Pharmacokinetic test in mice; assay type: in vivo; conditions: mouse, plasma; male ICR mice, oral gavage, 10 mg/kg
Would you kindly list AUC(0-t) for each of these molecules?
Answers are plain numbers, in ng·h/mL.

# count of solved cases: 3
Task: Report AUC(0-t) for Cc1nc(N[C@H](C)c2cccc(C(F)(F)F)c2C)c2cn(C3(CF)CC3)c(=O)cc2n1 [Control compound I, reference compound]
Result: 365

Task: Report AUC(0-t) for Cc1nc(N[C@H](C)c2cccc(S(F)(F)(F)(F)F)c2)c2cn(C3(C(F)F)CC3)c(=O)cc2n1
Result: 44100

Task: Report AUC(0-t) for Cc1nc(N[C@H](C)c2cccc(S(=O)(=O)C(F)(F)F)c2F)c2cn(C3(CF)CC3)c(=O)cc2n1
Result: 517

Moving on to another molecule below.
Task: Report AUC(0-t) for Cc1nc(N[C@H](C)c2cccc(C(F)F)c2F)c2cn(C3(C(F)F)CC3)c(=O)cc2n1 [Control compound II, reference compound]
Result: 1000
